# Ki values compiled below
Target: human plasma kallikrein (human, UniProt P03952 20-638)
Sequence (P03952 20-638): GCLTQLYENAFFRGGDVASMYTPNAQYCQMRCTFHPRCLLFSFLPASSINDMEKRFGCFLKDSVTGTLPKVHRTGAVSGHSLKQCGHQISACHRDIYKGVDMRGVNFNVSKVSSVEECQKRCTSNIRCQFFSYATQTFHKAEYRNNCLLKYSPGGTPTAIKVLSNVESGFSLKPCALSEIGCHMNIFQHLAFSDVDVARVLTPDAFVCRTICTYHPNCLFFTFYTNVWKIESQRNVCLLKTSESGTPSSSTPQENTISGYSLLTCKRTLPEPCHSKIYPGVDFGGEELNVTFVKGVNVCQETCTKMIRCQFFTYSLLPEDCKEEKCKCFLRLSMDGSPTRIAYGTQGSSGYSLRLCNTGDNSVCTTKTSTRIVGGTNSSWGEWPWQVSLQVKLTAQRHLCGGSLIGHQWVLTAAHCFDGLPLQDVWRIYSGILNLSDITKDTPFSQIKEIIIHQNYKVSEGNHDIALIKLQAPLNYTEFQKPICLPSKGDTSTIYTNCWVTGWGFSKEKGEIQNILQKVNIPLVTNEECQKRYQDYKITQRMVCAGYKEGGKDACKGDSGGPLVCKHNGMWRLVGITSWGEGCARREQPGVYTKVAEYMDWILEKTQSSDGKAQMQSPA
Experiment: enzyme inhibition
Quick reminder: number only, in nM, skip the unit.

TW6138 (protein) EVVREVCSEQAETGPCRAMISRWYFDVTEGKCAPFFYGGCKGNRNNFDTEEYCMAVCGSAI	18

Please report the recorded Ki for TW6154 (protein) EVVREVCSEQAETGPCRAMISRWYFDVTEGKCAPFFYGGCLGNRNNFDTEEYCMAVCGSAI .
11

Moving on to the next binder: TW6140 (protein) EVVREVCSEQAETGPCRAMISRWYFDVTEGKCAPFFYGGCNGNRNNFDTEEYCMAVCGSAI
35

All figures here come from patent US6906033.
